The following binders are shown together with reported Kd values.
# targetOfAssay: T1, his-tagged hTfR1 (Acro Biosystems p/n CD1-H5243) (human, UniProt P02786 89-760)
# T1 construct: Bought reagent of the SPR assay
# T1 sequence (P02786 89-760 limits assumed): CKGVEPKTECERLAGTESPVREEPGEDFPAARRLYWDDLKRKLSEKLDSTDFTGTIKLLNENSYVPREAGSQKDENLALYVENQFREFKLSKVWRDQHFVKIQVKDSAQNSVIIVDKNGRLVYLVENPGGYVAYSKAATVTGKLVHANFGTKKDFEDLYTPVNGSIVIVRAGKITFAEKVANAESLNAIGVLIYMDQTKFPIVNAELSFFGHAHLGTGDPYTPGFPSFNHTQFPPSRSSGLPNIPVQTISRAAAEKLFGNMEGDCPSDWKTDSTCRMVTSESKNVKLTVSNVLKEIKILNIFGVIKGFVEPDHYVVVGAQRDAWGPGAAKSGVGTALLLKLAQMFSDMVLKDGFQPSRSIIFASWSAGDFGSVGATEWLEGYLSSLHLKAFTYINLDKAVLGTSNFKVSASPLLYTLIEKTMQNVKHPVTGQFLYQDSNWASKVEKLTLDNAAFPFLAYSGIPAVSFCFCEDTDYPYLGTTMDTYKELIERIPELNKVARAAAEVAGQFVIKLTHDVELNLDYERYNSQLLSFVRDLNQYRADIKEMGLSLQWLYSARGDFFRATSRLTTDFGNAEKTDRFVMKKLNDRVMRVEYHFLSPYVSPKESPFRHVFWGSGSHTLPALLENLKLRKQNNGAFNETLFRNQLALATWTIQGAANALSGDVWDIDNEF
# runDescription: SPR, Biacore X100, His-tagged TfR1 captured by anti-His
The figure you give is taken to be in nM; do not add the unit.

Recorded results for 2 binders are shown here.
| binder | unitsLabel | Kd |
| --- | --- | --- |
| Fab0066 (Fab, V domains shown) VH: EVQLVESGGGLVQPGGSLRLSCATSGYTFTSYWVHWVRQAPGKGLEWVAEINPTNGRVNYIEKFKSRITLSVDKSKSTVYLQMNSLRAEDTAVYYCARGTRAYHYWGQGTLVTVSS VL: DIQLTQSPSSLSASVGDRVTITCRASDGLYSNLAWYQQKPGKAPKLLIYDAFNLASGVPSRFSGSGSGTDYTLTISSLQPEDFATYYCQHFWGTPLTFGQGTKVEIKR | nM | 1.41 |
| Fab0070 (Fab, V domains shown) VH: EVQLVESGGGLVQPGGSLRLSCATSGFTFTSYWMHWVRQAPGKGLEWVAEINPTNGRTNYIEKFKSRITLSVDKSKSTVYLQMNSLRAEDTAVYYCARGTRAYHYWGQGTLVTVSS VL: DIQLTQSPSSLSASVGDRVTITCRASDKLYSNLAWYQQKPGKAPKLLIYDATLLASGVPSRFSGSGSGTDYTLTISSLQPEDFATYYCQHFWGTPLTFGQGTKVEIKR | nM | 0.923 |

### Prompt Name the recorded Kd for Fab0060 (Fab, V domains shown) VH: EVQLVESGGGLVQPGGSLRLSCATSGYTFTSYWVHWVRQAPGKGLEWVAEINPTNGRTNYIEKFKSRITLSVDKSKSTVYLQMNSLRAEDTAVYYCARGTRAYHYWGQGTLVTVSS VL: DIQLTQSPSSLSASVGDRVTITCRASDGLYSNLAWYQQKPGKAPKLLIYDATKLASGVPSRFSGSGSGTDYTLTISSLQPEDFATYYCQHFWGTPLTFGQGTKVEIKR .
### Response 0.907
